tested.target: his-labeled human IL-13 (immunogen A) (human) (UniProt P35225)
method: cell-based or functional assay
measurement.kind: VCAM-1 fluorescence intensity, HUVEC + IL-13 0.5 ng/mL + TNFα; antibody at 0.001 nM

binder	endpoint.value
c29D9H8 (mouse-human chimeric IL-13 antibody) (antibody, V domains shown) VH: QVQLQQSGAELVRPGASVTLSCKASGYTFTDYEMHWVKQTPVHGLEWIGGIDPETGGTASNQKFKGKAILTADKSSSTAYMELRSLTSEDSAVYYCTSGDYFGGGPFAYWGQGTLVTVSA VL: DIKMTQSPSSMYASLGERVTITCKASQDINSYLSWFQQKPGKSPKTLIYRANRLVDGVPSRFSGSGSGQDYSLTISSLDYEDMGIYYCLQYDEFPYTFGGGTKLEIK	373
